System: SNB-19
Method Summary: Anticancer activity against human SNB19 cells after 48 hrs by sulforhodamine B assay
Type: functional
Test Parameters: Homo sapiens, SNB-19, 48 h; read-out: LC50 (the source's name)
Property Label: CC50 (µM)
The reply should be a number in µM, with the unit left off.

Answered examples (2):
>>> print(df.to_string())
                              record_smiles  property_label  reported_value
0  CCCCCCCCCCCCCCCCCC[n+]1ccn(C)c1.FC(F)(F)C(F)(F)[P-](F)(F)(F)(C(F)(F)C(F)(F)F)C(F)(F)C(F)(F)F            CC50            3.95
1       CCCCCCCCCCCCCCCC[n+]1ccn(C)c1.[Cl-]            CC50            9.59

Now for another entry.
Noted for CCCCCCCCCCCCCCCCCC[n+]1ccn(C)c1.O=S(=O)([N-]S(=O)(=O)C(F)(F)F)C(F)(F)F : its CC50 reads 4.95
